Source listed as patent US9328138B2.

Could you please report measured pKi for the items listed next?
systemName: HCV genotype 1b (BK) NS3 modified enzyme with a R155K mutation (Hepatitis C virus genotype 1b, UniProt P26663, R1181K)
Construct: HCV genotype 1b (BK) NS3 modified enzyme
method: HCV NS3 protease time-resolved fluorescence (TRF) assay, genotype 1b R155K
Assay type: biochemical
reportedConditions: Ki 1b R155K, genotype 1b (BK) NS3 R155K; single value
One number for each entry, as −log10 of the molar value.

Worked examples follow.
molecule	pKi
C=C[C@@H]1C[C@]1(NC(=O)[C@@H]1C[C@@H]2CN1C(=O)[C@H](C(C)(C)C)NC(=O)O[C@@H]1C[C@H]1CCCCCc1c(nc3ccccc3c1OCCN(C)c1ccccc1)O2)C(=O)NS(=O)(=O)C1(C)CC1	8.66
C=C[C@@H]1C[C@]1(NC(=O)[C@@H]1C[C@@H]2CN1C(=O)[C@H](C(C)(C)C)NC(=O)O[C@@H]1CCC[C@H]1CCCCCc1c(nc3ccccc3c1OCCN1CCOCC1)O2)C(=O)NS(=O)(=O)C1(C(C)(C)O)CC1	9.03
C=C[C@@H]1C[C@]1(NC(=O)[C@@H]1C[C@@H]2CN1C(=O)[C@H](C(C)(C)C)NC(=O)O[C@@H]1CCC[C@H]1CCCCCc1c(nc3ccccc3c1OCCN1CCOCC1)O2)C(=O)NS(=O)(=O)C1CC1	8.89
C=C[C@@H]1C[C@]1(NC(=O)[C@@H]1C[C@@H]2CN1C(=O)[C@H](C(C)(C)C)NC(=O)O[C@@H]1C[C@H]1CCCCCc1c(nc3ccccc3c1OCCN1CCCC1)O2)C(=O)NS(=O)(=O)C1(C)CC1	9.70
C=CC1C[C@]1(NC(=O)[C@@H]1C[C@@H]2CN1C(=O)[C@H](C1CCCC1)NC(=O)O[C@@H]1CCC[C@H]1CC/C=C/Cc1c(nc3ccccc3c1OCCCN(C)C)O2)C(=O)NS(=O)(=O)C1CC1 (some centres unmarked)	10.05
C=C[C@@H]1C[C@]1(NC(=O)[C@@H]1C[C@@H]2CN1C(=O)[C@H](C(C)(C)C)NC(=O)O[C@@H]1C[C@H]1CCCCCc1c(nc3ccccc3c1OCCCN(C)C)O2)C(=O)NS(=O)(=O)C1(C)CC1	10.29

Need pKi for each of these molecules.
1. C=C[C@@H]1C[C@]1(NC(=O)[C@@H]1C[C@@H]2CN1C(=O)[C@H](C(C)(C)C)NC(=O)O[C@@H]1C[C@H]1CCCCCc1c(nc3ccccc3c1OC1CNC1)O2)C(=O)NS(=O)(=O)C1(C)CC1
2. C=CC1C[C@]1(NC(=O)[C@@H]1C[C@@H]2CN1C(=O)[C@H](C1CCCC1)NC(=O)O[C@@H]1CCC[C@H]1CC/C=C/Cc1c(nc3ccccc3c1OCCN1C(=O)CCC1=O)O2)C(=O)NS(=O)(=O)C1CC1 (some centres unmarked)
3. C=C[C@@H]1C[C@]1(NC(=O)[C@@H]1C[C@@H]2CN1C(=O)[C@H](C(C)(C)C)NC(=O)O[C@@H]1C[C@H]1CCCCCc1c(nc3ccccc3c1OC[C@H]1CCN(C(=O)OC(C)(C)C)C1)O2)C(=O)NS(=O)(=O)C1(C)CC1

Solution:
10.35
10.05
9.85

###

For each of the compounds below, state its Ki.
systemName: HCV NS3 protease genotype 3a (3A-1) (Hepatitis C virus genotype 3a)
method: HCV NS3 protease time-resolved fluorescence (TRF) assay, genotype 3a
Type: biochemical
reportedConditions: Ki 3a
Answers are plain numbers, in nM.

smilesCode	measurementName	val
C=C[C@@H]1C[C@]1(NC(=O)[C@@H]1C[C@@H]2CN1C(=O)[C@H](C(C)(C)C)NC(=O)O[C@@H]1C[C@H]1CCCCCc1c(nc3ccccc3c1OCCCN(C)C)O2)C(=O)NS(=O)(=O)C1(C)CC1	Ki	0.25

Next compound, please.
Exercise: What Ki value was documented for this compound, `C=C[C@@H]1C[C@]1(NC(=O)[C@@H]1C[C@@H]2CN1C(=O)[C@H](C(C)(C)C)NC(=O)O[C@@H]1CCC[C@H]1CCCCCc1c(nc3ccccc3c1OCCCN1CCCCC1)O2)C(=O)NS(=O)(=O)C1(COC)CC1` ?
Solution: 0.78
